Origin of measurements: patent US11591323B2

# systemTested: M4 muscarinic receptor (Homo sapiens, UniProt P08173)
# Sequence (P08173 1-479): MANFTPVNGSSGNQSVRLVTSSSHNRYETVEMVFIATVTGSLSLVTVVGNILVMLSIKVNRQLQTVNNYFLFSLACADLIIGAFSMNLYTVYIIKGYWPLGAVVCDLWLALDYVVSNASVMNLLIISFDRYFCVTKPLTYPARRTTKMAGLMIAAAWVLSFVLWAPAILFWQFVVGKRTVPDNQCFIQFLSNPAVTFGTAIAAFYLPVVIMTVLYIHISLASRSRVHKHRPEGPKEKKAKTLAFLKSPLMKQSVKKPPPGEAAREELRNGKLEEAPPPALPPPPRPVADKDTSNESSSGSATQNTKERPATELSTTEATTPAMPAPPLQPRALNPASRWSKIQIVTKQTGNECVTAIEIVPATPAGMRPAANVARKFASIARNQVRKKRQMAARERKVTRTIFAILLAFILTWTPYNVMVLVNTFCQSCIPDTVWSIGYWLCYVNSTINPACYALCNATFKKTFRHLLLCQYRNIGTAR
# protocolDescription: [3H]NMS competition binding, M4 CHO membranes
# Set-up: host or cells: CHO cells, stably transfected
# measurementParameters: Inhibition constants (KI) as negative logarithms, M4, high site, reference agonists, high affinity site
quantity: Ki (nM)
Give bare numbers, in nM.

Asked: Give M4 muscarinic receptor (Homo sapiens, UniProt P08173) Ki for O=C1CCCN1CC#CCN1CCCC1 [oxotremorine, reference compound]
Given back: 12.6

----------
What pEC50 was measured for each of the following?
# systemTested: UniProtKB P08912
# Sequence (P08912 1-532): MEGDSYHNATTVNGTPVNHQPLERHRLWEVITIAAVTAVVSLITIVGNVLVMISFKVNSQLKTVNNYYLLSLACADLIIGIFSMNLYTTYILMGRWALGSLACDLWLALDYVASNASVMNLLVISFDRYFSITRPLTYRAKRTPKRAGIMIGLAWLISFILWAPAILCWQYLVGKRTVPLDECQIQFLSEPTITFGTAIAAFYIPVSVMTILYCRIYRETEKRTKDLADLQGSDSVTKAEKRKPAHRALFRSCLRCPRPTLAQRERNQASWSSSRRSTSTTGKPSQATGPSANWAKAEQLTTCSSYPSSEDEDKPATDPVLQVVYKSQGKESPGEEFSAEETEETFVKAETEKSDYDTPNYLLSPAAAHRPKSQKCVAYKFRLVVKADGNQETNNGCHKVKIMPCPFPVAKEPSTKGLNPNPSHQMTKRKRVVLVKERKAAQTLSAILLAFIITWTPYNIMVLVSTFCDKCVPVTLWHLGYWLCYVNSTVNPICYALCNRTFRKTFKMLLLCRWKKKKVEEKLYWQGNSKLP
# protocolDescription: accumulation of IPX, M5 CHO cells transfected with G15 (M5Gq+G15)
# Assay type: cell-based
# Set-up: expressed in transfected cells; host or cells: CHO cells
# measurementParameters: Table 8
Give bare numbers, as −log10 of the molar value.

# batch: return pEC50 for each of the 2 compounds below
1. C1=CCN(Cc2cccs2)CC1.Cl
2. C[N+]1(Cc2cccs2)CC=CCC1.[I-] (centres unmarked)

Given back:
[5.80, 5.10]

----------
# systemTested: M4 muscarinic receptor (Homo sapiens, UniProt P08173)
# protocolDescription: inhibition of forskolin-stimulated cAMP, M4 CHO cells (M4Gi)
# Format: cell-based
# Set-up: host or cells: CHO cells, stably transfected
# measurementParameters: M4 (↓cAMP), preferential response, Table 7; operational efficacy
What τ was measured for each of the following?
Numbers only.

Cc1ccc(C[N+]2(C)CC=CCC2)s1.[I-] (stereo not drawn)	0.51
Cc1ccc(CN2CC=CCC2)s1.Cl	0.39
C[N+]1(Cc2ccc(Cl)s2)CC=CCC1.[I-] (stereo not drawn)	0.46
Brc1ccc(CN2CC=CCC2)s1.Cl	0.38
C[N+]1(Cc2cccs2)CC=CCC1.[I-] (stereo not drawn)	0.78
C[N+]1(Cc2ccc(Br)s2)CC=CCC1.[I-] (stereo not drawn)	0.14

# batch: return τ for each of the 3 compounds below
1. C[N+](C)(C)CCOC(N)=O [carbachol, reference compound]
2. O=C1CCCN1CC#CCN1CCCC1 [oxotremorine, reference compound]
3. C1=CCN(Cc2cccs2)CC1.Cl

Given back:
1. 1.41
2. 1.17
3. 0.39
